- targetSystem: human TASK-1 (Homo sapiens (Human))
- assayComment: Inhibition of recombinant TASK-1 in stably transfected CHO cells (voltage-sensitive dye, KCl depolarization)
- Assay type: cell-based
- conditionSummary: depolarization by 40 mM potassium chloride
Recorded measurements of pIC50, one per entry
Scale: negative log10 of molar concentration, which is what pIC50 denotes.

Task: pIC50 lookup needed for COc1cccc(C(=O)N2CC3CCC2CN3Cc2c(-c3ccc(Cl)cc3)nc3ncccn23)c1 (stereo not shown) [Example 38] , thanks.
Output: 5.02

----------
- targetSystem: human TASK-1 (Homo sapiens (Human), UniProt O14649)
- Sequence (O14649 whole entry): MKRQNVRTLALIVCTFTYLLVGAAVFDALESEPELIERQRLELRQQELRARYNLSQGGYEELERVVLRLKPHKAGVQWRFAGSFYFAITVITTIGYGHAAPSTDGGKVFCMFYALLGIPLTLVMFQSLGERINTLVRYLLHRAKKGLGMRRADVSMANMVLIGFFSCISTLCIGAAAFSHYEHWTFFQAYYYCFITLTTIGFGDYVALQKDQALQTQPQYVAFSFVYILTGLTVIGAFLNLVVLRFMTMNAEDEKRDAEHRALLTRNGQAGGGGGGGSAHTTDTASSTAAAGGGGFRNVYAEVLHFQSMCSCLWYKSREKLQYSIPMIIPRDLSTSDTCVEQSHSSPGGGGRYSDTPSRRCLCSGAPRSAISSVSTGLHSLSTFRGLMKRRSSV
- assayComment: Inhibition of recombinant TASK-1 in stably transfected CHO cells (voltage-sensitive dye, KCl depolarization)
- Type: cell-based
- conditionSummary: depolarization by 40 mM potassium chloride
outcomeMeasure: IC50 (µM)
Hi! Could you send only the number? It should be in µM, unit omitted.

Below, 2 molecules whose answers are already recorded.
mol	unitName	IC50
CCOC(=O)N1C2CCC1CN(Cc1c(-c3ccc(Cl)cc3)nc3ncccn13)C2	µM	0.79
Cc1ocnc1C(=O)N1C2CCC1CN(Cc1c(-c3ccc(Cl)cc3)nc3ncccn13)C2	µM	0.4

Task: Give its IC50 value. Item: `O=C(N1CCCCC1)N1C2CCC1CN(Cc1c(-c3ccc(Cl)cc3)nc3ncccn13)C2`
Output: 2.7

Task: Request: `COC(=O)N1C2CCC1CN(Cc1c(-c3ccc(Cl)cc3)nc3ncccn13)C2`
Output: 14

Task: Try this molecule too: `CC(C)N(C(=O)N1C2CCC1CN(Cc1c(-c3ccc(Cl)cc3)nc3ncccn13)C2)c1ccc(Cl)cc1`
Output: 19

Task: What do you get for `CSc1cccc(C(=O)N2C3CCC2CN(Cc2c(-c4ccc(Cl)cc4)nc4ncccn24)C3)n1` ?
Output: 0.19

Task: // same read-out, input: `O=C(Nc1cccc(Cl)c1Cl)N1C2CCC1CN(Cc1c(-c3ccc(Cl)cc3)nc3ncccn13)C2`
Output: 30

Task: Subsequent entry: `O=C(Nc1ccc(SC(F)(F)F)cc1)N1C2CCC1CN(Cc1c(-c3ccc(Cl)cc3)nc3ncccn13)C2`
Output: 30

----------
- targetSystem: human TASK-1 (Homo sapiens (Human))
- assayComment: Inhibition of recombinant TASK-1 in stably transfected CHO cells (voltage-sensitive dye, KCl depolarization)
- Assay type: cell-based
- conditionSummary: depolarization by 40 mM potassium chloride
outcomeMeasure: pIC50
Worth noting: pIC50 values are minus log10 of concentrations stated in mol/L.

mol	pIC50
O=C(c1csc(C(F)(F)F)n1)N1C2CCC1CN(Cc1c(-c3ccc(Cl)cc3)nc3ncccn13)C2	5.80

Task: Quick check: pIC50 of `CC(C)c1ccc(-c2nc3ncccn3c2CN2CC3CCC(C2)N3C(=O)OC(C)(C)C)cc1` ?
Output: 5.77

Task: Same lookup for `CC(C)N(C)C(=O)N1C2CCC1CN(Cc1c(-c3ccc(Cl)cc3)nc3ncccn13)C2` , please.
Output: 5.13

Task: Could you do the same for `CCc1cccc(C)c1NC(=O)N1C2CCC1CN(Cc1c(-c3ccc(Cl)cc3)nc3ncccn13)C2` , please?
Output: 5.05

----------
- targetSystem: human TASK-3 (Homo sapiens (Human), UniProt Q9NPC2)
- Sequence (Q9NPC2 whole entry): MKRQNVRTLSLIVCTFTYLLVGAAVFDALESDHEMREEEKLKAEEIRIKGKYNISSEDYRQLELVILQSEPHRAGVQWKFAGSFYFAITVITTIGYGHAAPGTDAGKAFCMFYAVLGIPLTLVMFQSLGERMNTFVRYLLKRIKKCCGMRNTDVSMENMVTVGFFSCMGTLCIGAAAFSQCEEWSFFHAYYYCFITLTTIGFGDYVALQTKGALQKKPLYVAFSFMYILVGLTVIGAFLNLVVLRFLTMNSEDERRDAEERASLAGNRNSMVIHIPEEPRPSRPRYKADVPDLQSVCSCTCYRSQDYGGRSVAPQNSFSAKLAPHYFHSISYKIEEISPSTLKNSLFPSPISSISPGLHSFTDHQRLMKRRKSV
- assayComment: Inhibition of recombinant TASK-3 in stably transfected CHO cells (voltage-sensitive dye, KCl depolarization)
- Assay type: cell-based
- conditionSummary: depolarization by 40 mM potassium chloride
outcomeMeasure: IC50 (nM)
Return type: number; implicit unit nM.

Reference set (6 entries):
compound	targetSystem	unitName	IC50
O=C(C1CCCC1)N1C2CCC1CN(Cc1c(-c3ccc(Cl)cc3)nc3ncccn13)C2	human TASK-3 (Homo sapiens (Human), UniProt Q9NPC2)	nM	29
CCN(CC)C(=O)N1C2CCC1CN(Cc1c(-c3ccc(Cl)cc3)nc3ncccn13)C2	human TASK-3 (Homo sapiens (Human), UniProt Q9NPC2)	nM	1.5
O=C(NC1CCCCC1)N1C2CCC1CN(Cc1c(-c3ccc(Cl)cc3)nc3ncccn13)C2	human TASK-3 (Homo sapiens (Human), UniProt Q9NPC2)	nM	630
O=C(c1ccccc1F)N1CC2CCC1CN2Cc1c(-c2ccc(Cl)cc2)nc2ncccn12 (stereo not drawn) [Example 39]	human TASK-3 (Homo sapiens (Human), UniProt Q9NPC2)	nM	160
CNc1cccc(C(=O)N2C3CCC2CN(Cc2c(-c4ccc(C(C)C)cc4)nc4ncccn24)C3)n1	human TASK-3 (Homo sapiens (Human), UniProt Q9NPC2)	nM	70
O=C(Nc1ccc(F)cc1F)N1C2CCC1CN(Cc1c(-c3ccc(Cl)cc3)nc3ncccn13)C2	human TASK-3 (Homo sapiens (Human), UniProt Q9NPC2)	nM	1000

Task: Request: IC50, test system human TASK-3 (Homo sapiens (Human), UniProt Q9NPC2), entry `O=C(Nc1cc(C(F)(F)F)ccc1Cl)N1C2CCC1CN(Cc1c(-c3ccc(Cl)cc3)nc3ncccn13)C2`
Output: 450

Task: Then CC(C)(C)OC(=O)N1CC2CCC1CN2Cc1c(-c2ccc(Cl)cc2)nc2ncccn12 (single isomer, unassigned) [Example 5] ?
Output: 1300

Task: Here is the next compound: `O=C(c1ccccc1F)N1C2COCC1CN(Cc1c(-c3ccc(Cl)cc3)nc3ncccn13)C2`
Output: 85

Task: Note, next up: COc1ccc(C)c(C(=O)N2CC3CCC2CN3Cc2c(-c3ccc(C(C)C)cc3)nc3ncccn23)n1 (stereo not drawn) [Example 77]
Output: 4.9

Task: # repeat for `Cc1ocnc1C(=O)N1C2CCC1CN(Cc1c(-c3ccc(Cl)cc3)nc3ncccn13)C2`
Output: 23

Task: What do you get for `O=C(Nc1ccccc1F)N1C2CCC1CN(Cc1c(-c3ccc(Cl)cc3)nc3ncccn13)C2` ?
Output: 260

Task: Similarly, `COc1ccc(F)c(C(=O)N2C3CCC2CN(Cc2c(-c4ccc(Br)cc4)nc4ncccn24)C3)n1` ?
Output: 37
